tested on: TNF-α 3' untranslated region / human cell RBP's; test: High throughput screening assay, TNF-α 3' untranslated region with total protein extract; assay type: binding; conditions: TNF-α 3' UTR; read-out: EC50 on in vitro binding
measured-endpoint: EC50

QUERY: Query: EC50; subject: CC(=NNC(=N)N)c1cc(NC(=O)CCCCCCC(=O)Nc2cc(C(C)=NNC(=N)N)cc(C(C)=NNC(=N)N)c2)cc(C(C)=NNC(=N)N)c1 [SYM 1710]
RESULT: 23 µM

QUERY: Find the recorded EC50 belonging to Cc1c(CCN)c2c3n1CCCC3CCC2 (centres unmarked) [SYM 1405] and report it.
RESULT: ~2 µM
